B1: KCNA3 (parent)
chain: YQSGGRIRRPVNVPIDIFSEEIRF

# Variants of: B1
# assay.summary: protein stability index of a GFP-peptide fusion (GPS, HEK-293T) (PSI 1-6); higher = more stable;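 further: lentivirally expressed fusions sorted by FACS into six bins by GFP to DsRed ratio, PSI derived from sequencing read proportions per bin multiplied by bin number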
# assay.conditions: c terminus: a fixed tail appended
Answer not satisfied if protein stability index is under 2, and satisfied if it is 2 or more.

q: Kindly determine if protein stability index recorded for Q2K is above or exactly 2.
a: not satisfied

q: Then this variant: G5W
a: satisfied

q: Then what about the variant I7R ?
a: not satisfied

q: Moving on to R23W
a: not satisfied

q: What do you get for G4P ?
a: satisfied

q: Entry to check: I15N
a: satisfied

q: Note, next up: D16P
a: satisfied

q: Would you mind doing G5C as well?
a: not satisfied

q: And S19I ?
a: not satisfied

q: // repeat for Y1H and report
a: satisfied

q: Next: Y1C
a: satisfied

q: Try this variant too: P10L
a: not satisfied

q: Also R9F ?
a: not satisfied

q: Do the same for N12L please
a: not satisfied

q: Would you mind doing Y1F as well?
a: not satisfied

q: How about I22H ?
a: satisfied

q: Further, for D16L ?
a: not satisfied

q: Then I17Q ?
a: not satisfied

q: Same lookup for P10Q , please.
a: not satisfied

q: I17E , same question.
a: satisfied

q: Proceed to D16K
a: not satisfied

q: # repeat for R6C
a: not satisfied

q: Another variant: E20F
a: satisfied

q: And the next one, R8E ?
a: satisfied

q: # repeat for V11L
a: not satisfied

q: Another variant to check: G4Y
a: not satisfied

q: Consider next the variant F18M in the same way.
a: satisfied

q: What would you report for S19G ?
a: satisfied

q: Queued: N12W
a: satisfied

q: How about S3F ?
a: not satisfied

q: And for P14A ?
a: not satisfied

q: Same question for N12Q please.
a: satisfied

q: Now give it for Q2I too.
a: not satisfied

q: Could you do the same for I7A , please?
a: satisfied

q: E20K , same question.
a: satisfied

q: # iterate: G4M
a: satisfied

q: Entry V13I please
a: satisfied

q: Ok, now F24S
a: satisfied

q: Then this variant: F18Y
a: satisfied
